Each recorded value in this set is attributed to PubChem BioAssay (EPA / NIEHS).

assay: ATG_XTT_Cytotoxicity: Cytotoxicity Assessment in the Attagene TRANS-FACTORIAL HepG2 Assay (AID 2283584)
Records with an inconclusive call do not appear. Active and inactive are the calls of the source. Rule for the calls: active = hit-call score of the fitted dose curve at least 0.9, where 1 is the maximum; inconclusive = response in the unintended direction; inactive = score below 0.9.
reported endpoint: outcome

Answered examples (5):
>  <molecule>
O=C1c2ccccc2C(=O)c2cc(S(=O)(=O)O)ccc21

>  <reported endpoint>
outcome

>  <value reported>
inactive

$$$$
>  <molecule>
Nc1ncnc2nc[nH]c12

>  <reported endpoint>
outcome

>  <value reported>
inactive

$$$$
>  <molecule>
C=C(C)C(=O)OCC(O)COc1ccc(C(C)(C)c2ccc(OCC(O)COC(=O)C(=C)C)cc2)cc1 (stereo unspecified)

>  <reported endpoint>
outcome

>  <value reported>
inactive

$$$$
>  <molecule>
CC(C)[N+](C)(CCOC(=O)C1c2ccccc2Oc2ccccc21)C(C)C

>  <reported endpoint>
outcome

>  <value reported>
inactive

$$$$
>  <molecule>
Cc1cc(C)n(CO)n1

>  <reported endpoint>
outcome

>  <value reported>
inactive

$$$$

# next molecule below
Can you share its outcome? I mean this molecule: O=C(Nc1ccccc1)c1cc(Cl)ccc1O
inactive

---

read-out: Urokinase-type plasminogen activator receptor (uPAR), PLAUR (gene 5329); assay: BSK_BE3C_uPAR: BioMAP Diversity Plus: BE3C Assay for Urokinase-type plasminogen activator receptor (uPAR) Biomarker Activity (AID 2283039); conditions: primary human bronchial epithelial cells; actives raise or lower the signal;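 for outcome: uPAR protein level measured by ELISA on the cells; cells exposed to compound for one day before measurement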
The source made the active and inactive calls. Rule for the calls: active = hit-call score of the fitted dose curve at least 0.9, where 1 is the maximum; inactive = score below 0.9.
Write down the outcome that applies. Available outcomes: active, inactive

Examples with answers:
>  <molecule>
CCCCCCCO

>  <assigned class>
inactive

$$$$
>  <molecule>
CCCCCC1=CCCC1=O

>  <assigned class>
inactive

$$$$
>  <molecule>
CC=C(C)C(C)=O

>  <assigned class>
inactive

$$$$
>  <molecule>
CC(c1cc(C(C)(C)C)cc(C(C)(C)C)c1O)c1cc(C(C)(C)C)cc(C(C)(C)C)c1O

>  <assigned class>
inactive

$$$$

Field: outcome | Entry: c1ccc2c(c1)[nH]c1ccccc12
inactive

Field: outcome | Entry: CCCCCCCCCCCC(C)=O
inactive

Field: outcome | Entry: CC(C)c1cccc(C(C)C)c1N
inactive

Field: outcome | Entry: COC(OC)(C(=O)c1ccccc1)c1ccccc1
inactive

Field: outcome | Entry: CCOC(=O)C1=NOC(c2ccccc2)(c2ccccc2)C1
inactive

Field: outcome | Entry: C=C(C)C(=O)OCCCCCCCCCCCC
inactive

Field: outcome | Entry: CC1(C)CC(O)CC(C)(C)N1[O]
inactive

Field: outcome | Entry: CCOC(=O)C1=NN(c2ccc(Cl)cc2Cl)C(C)(C(=O)OCC)C1 (stereo unspecified)
inactive

Field: outcome | Entry: C=CCCCCCCCCC=O
inactive

Field: outcome | Entry: CCC1(C)C(=O)N(Cl)C(=O)N1Cl (stereo unspecified)
inactive

Field: outcome | Entry: Nc1ccc(C(=O)O)cc1
inactive

Field: outcome | Entry: CCCCC1C(=O)N(c2ccccc2)N(c2ccccc2)C1=O
inactive

Field: outcome | Entry: Cc1c(O)cccc1O
inactive

Field: outcome | Entry: CCCCCCOC(=O)CCCCC(=O)OCCCCCC
inactive

Field: outcome | Entry: Oc1c(Cl)cc(Cl)c(Cl)c1Cl
active

Field: outcome | Entry: Oc1ccc(/C=C/c2cc(O)cc(O)c2)cc1
active

Field: outcome | Entry: c1ccc2sc(SSN3CCOCC3)nc2c1
inactive

Field: outcome | Entry: CCCC(C)C(=O)OCC (stereo unspecified)
inactive

---

target: Cellular tumor antigen p53 (Homo sapiens); assay: TOX21_p53_BLA_p5_ratio: Tox21 HCT-116 p53 Agonism Beta-lactamase Assay, Ratio, Phase 5 (AID 2283599)
Inconclusive results are not listed. Calls of active or inactive are those of the source. How the source made its calls: active means hit-call score of the fitted dose curve at least 0.9, where 1 is the maximum; inconclusive means response in the unintended direction; inactive means score below 0.9. Peptide text beside a SMILES is read from it.
Write down the outcome that applies. Available outcomes: active, inactive

Examples with answers:
>  <compound>
CC(=O)C(C)C

>  <assigned class>
inactive

$$$$
>  <compound>
CC(=O)c1ccccc1O

>  <assigned class>
inactive

$$$$
>  <compound>
N#CC1(N)CCCCC1

>  <assigned class>
inactive

$$$$
>  <compound>
Cc1ccc(S(=O)(=O)N=C=O)cc1

>  <assigned class>
inactive

$$$$
>  <compound>
CC(=O)OCCc1ccccc1

>  <assigned class>
inactive

$$$$
>  <compound>
COc1ccc(-c2coc3cc(O)cc(O)c3c2=O)cc1

>  <assigned class>
inactive

$$$$
>  <compound>
CC1=CC=C(C(C)C)CC1

>  <assigned class>
inactive

$$$$
>  <compound>
CC1=C(O)C(=O)C(C)O1 (configuration not stated)

>  <assigned class>
inactive

$$$$
>  <compound>
CC(=O)c1ccc(S(=O)(=O)NC(=O)NC2CCCCC2)cc1

>  <assigned class>
inactive

$$$$
>  <compound>
CCOC(=O)C1=NOC(c2ccccc2)(c2ccccc2)C1

>  <assigned class>
inactive

$$$$

Field: outcome | Entry: OCCCc1ccccc1
inactive

Field: outcome | Entry: CC1=CC(C)C(C=O)CC1 (configuration not stated)
inactive

Field: outcome | Entry: CC(C)C(=O)OCCOc1ccccc1
inactive

Field: outcome | Entry: COC(=O)[C@H](Cc1ccccc1)NC(=O)[C@@H](N)CC(=O)O (H-Asp-Phe-OMe)
inactive

Field: outcome | Entry: CCCCCCCCCCCCC
inactive

Field: outcome | Entry: CCCCCCOc1ccc(N)cc1
inactive

Field: outcome | Entry: CCc1cccc(C)c1N
inactive

Field: outcome | Entry: CC=C(C)C=CC=C(C)C
inactive

Field: outcome | Entry: CC(C)c1ccc(O)c(C(C)C)c1
inactive

---

read-out: Plasminogen activator inhibitor-1 (PAI1), SERPINE1 (gene 5054); assay: BSK_MyoF_PAI1: BioMAP Diversity Plus: MyoF Assay for Plasminogen activator inhibitor-1 (PAI1) Biomarker Activity (AID 2284256); details: primary human lung fibroblasts
Activity calls are given as the source filed them. The calls were made as follows: active = hit-call score of the fitted dose curve at least 0.9, where 1 is the maximum; inactive = score below 0.9.
reported endpoint: AC50

Answered examples (5):
>  <compound>
O=C(O)C(F)(F)C(F)(F)C(F)(F)C(F)(F)C(=O)O

>  <AC50>
inactive

$$$$
>  <compound>
Clc1cc(Cl)c(Cl)c(Cl)c1Cl

>  <AC50>
31.9 µM (active)

$$$$
>  <compound>
CC/C=C\CCOC(=O)c1ccccc1O

>  <AC50>
31.3 µM (active)

$$$$
>  <compound>
c1ccc2sc(SSN3CCOCC3)nc2c1

>  <AC50>
29.8 µM (active)

$$$$
>  <compound>
CCCCC1C(=O)N(c2ccccc2)N(c2ccccc2)C1=O

>  <AC50>
inactive

$$$$

Items follow; give AC50 for each.
1. CCCCCCC=O
2. CC(C)[N+](C)(CCOC(=O)C1c2ccccc2Oc2ccccc21)C(C)C

1: inactive; 2: 0.0398 µM (active)

Items follow; give AC50 for each.
1. O=C1CCCCCCCCCCCN1
2. CC1(C)CC(O)CC(C)(C)N1[O]
3. CC=C(C)C(C)=O
4. CC(C)CCCCCOC(=O)CS
5. Cc1c(O)cccc1O
6. CCNc1nc(NC(C)(C)C)nc(OC)n1
7. C=CC(=O)OCC(C)OCC(C)OCC(C)OC(=O)C=C (stereo not drawn)

["inactive", "inactive", "inactive", "inactive", "inactive", "inactive", "30.9 µM (active)"]

Items follow; give AC50 for each.
1. C=CC(=O)NCOCCCC
2. O=C(Cl)c1c(Cl)c(Cl)c(C(=O)Cl)c(Cl)c1Cl
3. Oc1c(Cl)cc(Cl)c(Cl)c1Cl
4. C=CC(=O)OCCCCCCCC(C)C
5. COc1ccc(C(=O)/C(Br)=C\C(=O)O)cc1
6. CC=C(C)C=CC=C(C)C
7. CC(C)c1cccc(C(C)C)c1N
8. CCCCCCOC(=O)CCCCC(=O)OCCCCCC

1. inactive
2. inactive
3. 28.3 µM (active)
4. inactive
5. inactive
6. 0.016 µM (active)
7. inactive
8. inactive

Can you share its AC50? I mean this compound: C=C(C)C(=O)OCCCCCCCCCCCC
inactive

---

assay: ATG_CRE_CIS: Attagene CIS-FACTORIAL HepG2 Assay for human cAMP Responsive Element (CRE) binding protein 3 (AID 2282926); details: HepG2 CRE cis-reporter, Attagene multiplexed mRNA; actives raise or lower the signal
The source made the active and inactive calls. How the source made its calls: active means hit-call score of the fitted dose curve at least 0.9, where 1 is the maximum; inactive means score below 0.9.
Write down the outcome that applies. Available outcomes: class 1 = active, class 0 = inactive

Examples with answers:
>  <compound>
C=CCNCC=C

>  <assigned class>
class 0

$$$$
>  <compound>
CCCCC1CCC(=O)O1 (configuration not stated)

>  <assigned class>
class 0

$$$$
>  <compound>
CC(c1cc(C(C)(C)C)cc(C(C)(C)C)c1O)c1cc(C(C)(C)C)cc(C(C)(C)C)c1O

>  <assigned class>
class 0

$$$$
>  <compound>
CCCCCCCCCCCC(=O)OCC

>  <assigned class>
class 0

$$$$
>  <compound>
C=CCCCCCCCCO

>  <assigned class>
class 0

$$$$

Field: outcome | Entry: CC(C)(O)Cc1ccccc1
class 0

Field: outcome | Entry: O=C(O)CC(C(=O)O)S(=O)(=O)O (configuration not stated)
class 0

Field: outcome | Entry: CC1=CC=C(C(C)C)CC1
class 0

Field: outcome | Entry: CCCC(CC)c1ccccc1 (configuration not stated)
class 0

Field: outcome | Entry: CCCC1CCCC(=O)O1 (configuration not stated)
class 0

Field: outcome | Entry: CC1OC(=O)C(C)OC1=O (configuration not stated)
class 0

Field: outcome | Entry: CC(=O)C(C)C
class 0

Field: outcome | Entry: CCOC(=O)C1=NOC(c2ccccc2)(c2ccccc2)C1
class 0

Field: outcome | Entry: CC(C)C(=O)OCCc1ccccc1
class 0

Field: outcome | Entry: C=C1C[C@H]2[C@@H]3C=C(C)C4=CC(=O)CC[C@]4(C)[C@H]3CC[C@]2(C)[C@@]1(OC(C)=O)C(C)=O
class 0

Field: outcome | Entry: CCCCc1ccc(Cl)cc1
class 0

Field: outcome | Entry: N#CC1(N)CCCCC1
class 0

Field: outcome | Entry: CCCCNS(=O)(=O)c1ccccc1
class 0

Field: outcome | Entry: CCCCC/C=C\C/C=C\CCCCCCCC(=O)O
class 0
